Molecular target: hENT2 (SLC29A2) (Homo sapiens)
Construct: expressed in transfected cells; host or cells: Saccharomyces cerevisiae
Sequence (Q14542 whole entry): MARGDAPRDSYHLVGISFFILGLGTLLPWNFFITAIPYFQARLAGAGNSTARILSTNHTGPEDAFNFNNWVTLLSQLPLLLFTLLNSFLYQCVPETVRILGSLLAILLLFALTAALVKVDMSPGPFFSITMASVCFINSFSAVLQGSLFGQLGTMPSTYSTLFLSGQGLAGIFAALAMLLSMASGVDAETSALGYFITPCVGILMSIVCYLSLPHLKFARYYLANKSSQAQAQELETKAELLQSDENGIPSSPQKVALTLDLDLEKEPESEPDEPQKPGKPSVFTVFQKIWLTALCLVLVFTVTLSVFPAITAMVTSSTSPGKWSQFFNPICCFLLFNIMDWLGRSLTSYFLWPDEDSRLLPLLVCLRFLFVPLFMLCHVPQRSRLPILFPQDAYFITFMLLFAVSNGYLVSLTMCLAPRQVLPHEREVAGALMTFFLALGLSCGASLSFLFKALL
Test: Inhibition of [^3H]uridine uptake in yeast cells producing recombinant hENT2
Assay type: cell-based
Settings: inhibition of 1 µmol/L [^3H]uridine transport, yeast, 0–3 mM test compound, mean ± SE, n = 2–3; NI = no interaction
quantity: IC50

Documented IC50 of O=[N+]([O-])c1nccn1[C@H]1O[C@H](CF)[C@@H](O)[C@@H]1O [FAZA] : > 3 mM

Item: O=[N+]([O-])c1nccn1C1CC(O)C(CF)O1 (stereo not drawn) [α-FAZDR] | IC50: > 3 mM

###

// reported pIC50 for each item listed
Biological target: hENT2 (SLC29A2) (Homo sapiens)
Construct: expressed in transfected cells; host or cells: Saccharomyces cerevisiae
Assay: Inhibition of [^3H]uridine uptake in yeast cells producing recombinant hENT2
Assay type: cell-based
pIC50: −log10 of the molar value.

// recorded pIC50 for O=[N+]([O-])c1nccn1C1CC(O)C(CF)O1 (stereo not drawn) [β-FAZDR] : < 2.52

Summary for this compound, O=[N+]([O-])c1nccn1[C@@H]1O[C@H](CF)[C@@H](O)[C@@H]1O [β-FAZA] : pIC50 is < 2.52

###

Target: hCNT3 (SLC28A3) (Homo sapiens, UniProt Q9HAS3)
Construct: expressed in transfected cells; host or cells: Saccharomyces cerevisiae
Sequence (Q9HAS3 whole entry): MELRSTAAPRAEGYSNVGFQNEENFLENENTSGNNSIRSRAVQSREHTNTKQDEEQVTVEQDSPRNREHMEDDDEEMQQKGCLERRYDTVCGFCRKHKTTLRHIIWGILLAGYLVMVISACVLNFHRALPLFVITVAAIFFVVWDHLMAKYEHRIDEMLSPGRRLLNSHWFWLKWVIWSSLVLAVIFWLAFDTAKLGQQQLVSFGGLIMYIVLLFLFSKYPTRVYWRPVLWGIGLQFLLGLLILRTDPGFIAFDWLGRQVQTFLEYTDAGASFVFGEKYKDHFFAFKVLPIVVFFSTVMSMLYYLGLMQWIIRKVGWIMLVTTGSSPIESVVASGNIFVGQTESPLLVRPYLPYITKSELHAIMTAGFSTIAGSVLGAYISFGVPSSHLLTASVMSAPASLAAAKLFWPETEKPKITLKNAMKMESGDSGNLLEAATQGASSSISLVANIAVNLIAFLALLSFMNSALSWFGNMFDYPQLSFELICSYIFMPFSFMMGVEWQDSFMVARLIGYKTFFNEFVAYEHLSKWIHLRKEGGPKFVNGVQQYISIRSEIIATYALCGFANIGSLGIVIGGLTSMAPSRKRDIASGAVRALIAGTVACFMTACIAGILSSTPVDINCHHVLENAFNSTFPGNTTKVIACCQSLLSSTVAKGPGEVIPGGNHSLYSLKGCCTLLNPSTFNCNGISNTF
Experiment: Inhibition of [^3H]uridine uptake in yeast cells producing recombinant hCNT3
Assay type: cell-based
quantity: IC50 (µM)
Hi! Could you send only the number? It should be in µM, unit omitted.

O=[N+]([O-])c1nccn1[C@H]1O[C@H](CF)[C@@H](O)[C@@H]1O; 1380
O=[N+]([O-])c1nccn1[C@@H]1O[C@H](CF)[C@@H](O)[C@@H]1O; 2310

Query compound follows.
hCNT3 (SLC28A3) (Homo sapiens, UniProt Q9HAS3) data for O=[N+]([O-])c1nccn1C1CC(O)C(CF)O1 (stereo not drawn) ; its IC50: 124
